Sourced from patent US20240024426A1

Target: human GLP-1 receptor (human, UniProt P43220 24-463)
Assay: cell-based or functional assay
Bridges are numbered along the chain shown (N, C = ends). Where no end group is shown, it is not given here. [ ]: non-standard residue; d: D form. The star is where a group is joined. Acetyl(2-(4-imidazolyl)) = O=C(Cc1c[nH]cn1)*; Aib = CC(C)(N)C(=O)O
RESULT TYPE: In vitro activity compared with native peptide (%) vs. GLP-1
A number alone suffices; assume %.

Guide cases for In vitro activity compared with native peptide (%) vs. GLP-1, answers given:
BINDER | MEASURED NUMBER
{Acetyl(2-(4-imidazolyl))}-[Aib]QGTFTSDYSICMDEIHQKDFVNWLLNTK (bridge 15-19) [Triple agonist of SEQ ID NO: 49] | 29.8
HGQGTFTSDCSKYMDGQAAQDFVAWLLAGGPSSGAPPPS [Triple agonist of SEQ ID NO: 45] | 6.6

// switching to the query binder
Qu. Write down In vitro activity compared with native peptide (%) vs. GLP-1 measured for item {Acetyl(2-(4-imidazolyl))}-[Aib]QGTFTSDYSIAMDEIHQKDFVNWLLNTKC (bridge 15-19) [Triple agonist of SEQ ID NO: 94]
Ans. 0.5
